Data origin: a protein production outcome set (Wang et al. 2014)

Experiment: label from the status in PepcDB records
endpoint label: protein production

EHFNDMIEKRVKSEIRNQVDLKKPMVRISVAISGGKDSSVTLYLLHKILSKRRNVELTAFTVDEGISGYRPAGLESAIKLTKMLGVDHSIIRFQDSFGMTLDSIVGADASRIPCSYCGPLRRKLINEMAERQNADYVALGLNLDDYSQSILMNVAKGDYDRLLRMSPQKEAKDGLVRRIAPLRSVLEKEVVLYAVINGIPFDSSWC | failed
MMTKYGVVGTGYFGAELARFMSKVEGAKITAIYDPVNAAPIAKELNCVATATMEALCSHPDVDCVIIASPNYLHKAPVIAAAKAGKHVFCEKPIALNYQDCKDMVDACKEAGVTFMAGHVMNFFHGVRHAKALIKAGEIGEVTQVHTKRNGFEDVQDEISWKKIRAKSGGHLYHHIHELDCTLFIMDETPSLVSMAAGNVAHKGEKFGDEDDVVLITLEFESGRFATLQWGSSFHYPEHYVLIEGTTGAILIDMQNTAGYLIKAGKKTHFLVHESQAEDDDRRNGNISSEMDGAIAYGKPGKRTPMWLSSIMKLEMQYLHDVINGLEPGEEFAKLLTGEALEHHHHHH | failed
